Each recorded value in this set is attributed to ChEMBL document CHEMBL1136228.

# targetOrTestSystem: Peroxisome proliferator-activated receptor alpha (Homo sapiens)
# Sequence (Q07869 whole entry): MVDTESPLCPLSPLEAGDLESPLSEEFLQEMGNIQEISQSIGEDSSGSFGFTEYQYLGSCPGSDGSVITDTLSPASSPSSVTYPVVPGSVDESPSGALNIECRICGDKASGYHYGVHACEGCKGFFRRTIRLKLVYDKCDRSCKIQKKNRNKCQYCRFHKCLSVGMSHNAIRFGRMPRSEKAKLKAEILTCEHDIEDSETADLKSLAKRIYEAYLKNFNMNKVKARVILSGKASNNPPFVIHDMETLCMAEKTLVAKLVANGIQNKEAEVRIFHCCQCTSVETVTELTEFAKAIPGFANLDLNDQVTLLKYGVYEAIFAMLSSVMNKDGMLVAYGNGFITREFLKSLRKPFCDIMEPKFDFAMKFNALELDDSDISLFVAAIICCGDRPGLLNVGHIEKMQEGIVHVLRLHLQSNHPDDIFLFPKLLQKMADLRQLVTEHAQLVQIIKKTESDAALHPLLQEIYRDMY
Exam item: assign met to entries whose Ki is below 0.06 µM and not met to entries at or above 0.06 µM. Note that a value of exactly 0.06 µM receives not met.

# compound, groupLabel
data = [
    ("CCCc1cc(C(=O)OC)cc(C)c1OC(C(=O)O)c1ccccc1 (stereo unspecified)", "met"),
    ("CCCc1cc(C(=O)OC)cc(CCC)c1OC(C(=O)O)c1ccccc1 (stereo unspecified)", "not met"),
    ("CCCc1cc2c(C(F)(F)F)noc2c(CCC)c1O[C@H](C(=O)O)c1ccccc1", "met"),
    ("CCCc1cc(C(=O)CC)c(O)c(CCC)c1OC(C(=O)O)c1ccccc1 (stereo unspecified)", "not met"),
    ("CCCc1cc2c(C(F)(F)F)noc2c(CCC)c1OC(C(=O)O)c1ccc(OCc2ccccn2)cc1 (stereo unspecified)", "not met"),
    ("CCCc1c(O)c(C(=O)CC)cc(Cl)c1OC(C(=O)O)c1ccccc1 (stereo unspecified)", "not met"),
]
